system: Mycobacterium tuberculosis; test: Antitubercular activity against multi-drug-resistant Mycobacterium tuberculosis assessed as bacterial growth inhibition measured after 7 days by direct susceptibility assay; type: functional; settings: 168 h, time 7 day
MIC values, listed per item
READOUT NAME: MIC (µg/mL)

COMPOUND | READOUT UNITS | VAL
NNC(=O)c1ccncc1 | µg/mL | 512
CO/N=C1/C(=O)C(CCOCCOCCOCCn2cc(CN3C(=O)/C(=N/OC)c4cc(F)ccc43)nn2)c2ccccc21 (stereo unspecified) | µg/mL | 64
O=C(O)c1cn(C2CC2)c2cc(N3CCN(Cc4cn(CCN5C(=O)Cc6ccccc65)nn4)CC3)c(F)cc2c1=O | µg/mL | 0.25
CO[C@H]1/C=C/O[C@@]2(C)Oc3c(C)c(O)c4c(O)c(c(/C=N/N5CCN(C)CC5)c(O)c4c3C2=O)NC(=O)/C(C)=C\C=C\[C@H](C)[C@H](O)[C@@H](C)[C@@H](O)[C@@H](C)[C@H](OC(C)=O)[C@@H]1C | µg/mL | 64
O=C(O)c1cn(C2CC2)c2cc(N3CCNCC3)c(F)cc2c1=O | µg/mL | 4
COc1c(N2CCNCC2)c(F)cc2c(=O)c(C(=O)O)cn(C3CC3)c12 | µg/mL | 2
